The reported measurements were obtained from paper PMC12040169.

# procedure summary: in vitro
# particulars: human, hela cells, % viability
T if viability at 28.5 h, 10 µM is below 90%. F if not; exact matches included in F.

smiles_string=Cc1cc(Cl)c(S(=O)(=O)Nc2cccnc2)cc1OCC(N)=O label_value=F
smiles_string=Cc1ccc(C2(C(=O)N3CCCC3)CCN(S(=O)(=O)c3ccc(C)cc3)CC2)cc1 label_value=F
smiles_string=CCCc1nc(-c2ccc3c(c2)CCCN3S(C)(=O)=O)cs1 label_value=F
smiles_string=O=C(COc1ccccc1Cl)Nc1nnc[nH]1 label_value=T

* * *

# procedure summary: in vitro
# particulars: human, hela cells, % viability
measurement label: viability at 28.5 h, 10 µM

compound="Cc1ccc(-c2cc(C(=O)O)[nH]n2)cc1 [CBK265462]" measurement_label="viability at 28.5 h, 10 µM" result=101%
compound="CSc1ccc(-c2cn3ccnc3c(NCCc3ccncc3)n2)cc1 [CBK066479]" measurement_label="viability at 28.5 h, 10 µM" result=102%
compound="N#Cc1c(C(F)(F)F)cc(-c2ccccc2)nc1SCCC(=O)Nc1ccccc1O [CBK268191]" measurement_label="viability at 28.5 h, 10 µM" result=103%
compound="Clc1nc2ccccc2nc1OCCOc1ccccc1 [CBK113367]" measurement_label="viability at 28.5 h, 10 µM" result=108%
compound="CC1CCN(S(=O)(=O)c2ccc(S(=O)(=O)Nc3ncnn3C)cc2)CC1 [CBK306470]" measurement_label="viability at 28.5 h, 10 µM" result=92.3%
compound="O=C(N[C@@H](Cn1cc(Cl)c(=O)[nH]c1=O)C(=O)O)C1CC1 [CBK289649]" measurement_label="viability at 28.5 h, 10 µM" result=88.3%
compound="CCCNC(=O)C1(Cc2ccccc2-c2ccccc2)CCN(C(=O)c2ccccc2)CC1 [CBK286275]" measurement_label="viability at 28.5 h, 10 µM" result=89.3%
compound="FC(F)(F)c1ccc(Sc2cccs2)nc1 [CBK115236]" measurement_label="viability at 28.5 h, 10 µM" result=92.5%
compound="Cc1ccc2oc([C@H]3CN(C(=O)C(C)(C)NC(=O)OC(C)(C)C)C[C@@H]3C(=O)O)cc2c1 [CBK001600]" measurement_label="viability at 28.5 h, 10 µM" result=86.1%
compound="CC(=O)Nc1ccc(NC(=O)NCC2CCCO2)c(C(F)(F)F)c1 (centres unmarked) [CBK304150]" measurement_label="viability at 28.5 h, 10 µM" result=92.8%
compound="CCC1(C)CC(C(CCN)c2ccc(C)cc2)CCO1 (centres unmarked) [CBK027350]" measurement_label="viability at 28.5 h, 10 µM" result=98.8%
compound="CC(C)(CO)Cn1c(=O)[nH]c2ncc(-c3ccc(C(N)=O)cc3)nc21 [CBK064787]" measurement_label="viability at 28.5 h, 10 µM" result=88.5%
compound="CCCC/C=C/c1cncc(N(C)CCN(C)C)n1 [CBK065374]" measurement_label="viability at 28.5 h, 10 µM" result=91.1%
compound="CCn1nc(C)c(-c2cncn2CCCN2CCCCC2)c1C [CBK281769]" measurement_label="viability at 28.5 h, 10 µM" result=97.6%
compound="CN1CCN(CC(O)COCc2ccc3c(c2)OCO3)CC1 (centres unmarked) [CBK278260C]" measurement_label="viability at 28.5 h, 10 µM" result=81.4%
compound="COC(=O)c1c(NC(=O)CC2Nc3ccccc3NC2=O)sc2c1CCC(C(C)(C)C)C2 (centres unmarked) [CBK265614]" measurement_label="viability at 28.5 h, 10 µM" result=98.1%
compound="O=C(NCCCC1CCOC1)c1cc2ccc(F)cc2[nH]1 (centres unmarked) [CBK283213]" measurement_label="viability at 28.5 h, 10 µM" result=110%
compound="Sc1nnc(-c2cccc(Br)c2)o1 [CBK288432]" measurement_label="viability at 28.5 h, 10 µM" result=101%
compound="O=C(O)COc1ccc(N2C(=O)c3ccc(-c4nc5ccccc5c(=O)o4)cc3C2=O)cc1 [CBK265659]" measurement_label="viability at 28.5 h, 10 µM" result=106%
compound="Cc1cc(C)c(OCCOCCN2CCNCC2)c(Br)c1 [CBK266079G]" measurement_label="viability at 28.5 h, 10 µM" result=99.6%
